biological target: T1, human cloned SST-R2 (human, UniProt P30874 1-369); assay: inhibition of 125I-Tyr11-SRIF-14 binding to membranes of CHO cells expressing cloned human SST-R2
T1 construct: whole, on cells; Assayed as membrane preparations of CHO cells expressing the cloned receptor, not as intact cells; also called hSST-R2; human SST-R2
T1 sequence (P30874 whole entry): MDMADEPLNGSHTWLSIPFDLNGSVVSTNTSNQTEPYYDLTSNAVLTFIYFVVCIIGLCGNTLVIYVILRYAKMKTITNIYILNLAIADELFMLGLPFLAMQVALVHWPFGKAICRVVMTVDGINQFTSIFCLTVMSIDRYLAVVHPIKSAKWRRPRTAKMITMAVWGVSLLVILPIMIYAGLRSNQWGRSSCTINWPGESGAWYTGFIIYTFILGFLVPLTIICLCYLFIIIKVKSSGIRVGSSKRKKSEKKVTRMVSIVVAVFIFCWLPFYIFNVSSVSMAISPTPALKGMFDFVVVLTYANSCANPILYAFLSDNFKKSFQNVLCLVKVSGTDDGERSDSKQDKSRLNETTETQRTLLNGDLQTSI
Each entry below carries its recorded IC50.
Report as a plain number; the unit nM is understood.

Use the examples below as a reference point.
Look at this binder and give its reported IC50. CXFWWKTFG (not fully specified; D-Cys at 1; GABA at 2 (written X); D-Trp at 5; GlyN3 building unit at 9 with D-Cys on its omega-amine; C-terminal amide; ReO (oxorhenium(V)) chelated by the two Cys closes the ring) [ReO-GF-20]
10

Then what about the binder CXFWWKTFG (D-Cys at 1; GABA at 2 (written X); D-Trp at 5; GlyN6 building unit at 9 with L-Cys on its omega-amine; C-terminal amide; ReO (oxorhenium(V)) chelated by the two Cys closes the ring, also called ReO-GF-03; ReO-DCys*-GABA-Phe-Trp-DTrp-Lys-Thr-Phe-GlyN6(LCys*)-NH2) [ReO-GF-3] ?
6

Next item in the queue.
Look at this binder and give its reported IC50. CGFWWKTFG (not fully specified; D-Cys at 1; D-Trp at 5; GlyN6 building unit at 9 with D-Cys on its omega-amine; C-terminal amide; ReO (oxorhenium(V)) chelated by the two Cys closes the ring) [ReO-GF-12]
9
